Provenance of the data: ChEMBL document CHEMBL1152898

# Test system: HeLa
# test_name: Antitumor activity against human HeLa cells after 72 hrs by MTS assay
# Format: functional, cell-based
property_measured: IC50 (µg/mL)
Give just the number in µg/mL; leave the unit off.

Example results:
[
  {
    "compound": "COc1c2occc2cc2ccc(=O)oc12",
    "test_system": "HeLa",
    "property_measured": "IC50",
    "quantitative_result": 7.6
  },
  {
    "compound": "COc1c2occc2c(N2C(=O)CSC2c2ccc(Br)cc2)c2ccc(=O)oc12 (stereo not given)",
    "test_system": "HeLa",
    "property_measured": "IC50",
    "quantitative_result": 40
  },
  {
    "compound": "CCNC(=S)Nc1c2ccoc2c(OC)c2oc(=O)ccc12",
    "test_system": "HeLa",
    "property_measured": "IC50",
    "quantitative_result": 23
  },
  {
    "compound": "COc1c2occc2c(/N=C/c2cccs2)c2ccc(=O)oc12",
    "test_system": "HeLa",
    "property_measured": "IC50",
    "quantitative_result": 7.2
  }
]

Considering COc1c2occc2c(NC(=S)NCc2ccccc2)c2ccc(=O)oc12 , its IC50 with HeLa was recorded as 7.5
